- Tested on: P. falciparum (NF54 or 3D7 strain)
- assayMethodText: Assay for P. falciparum proliferation in infected human blood cells (SYBR Green)
- Format: cell-based, Plasmodium falciparum
- conditionDescription: Plasmodium falciparum, Erythrocyte, 72 h, NF54 or 3D7 infected human erythrocytes, 72 hours; read-out: EC50 (nM), inhibitory efficacy in delaying P. falciparum proliferation in infected human blood cells
readoutKind: log10(EC50) (log10 of the value in nM)

> print(dat)
                                    molecule  valuemeasured
 1  CN(C(=O)c1cn2c(-c3ccc(C(=O)NC4CC4)cc3)cnc2cn1)c1ccc(Cl)nc1 [Compound 343]           3.83
 2  CN(C(=O)c1cn2c(-c3ccc(CN)cc3)cnc2cn1)c1ccc(C#N)cc1 [Compound 186]           3.96
 3  CN(C(=O)c1cn2c(-c3ccc(C(F)(F)F)cc3)cnc2cn1)c1ccccc1F [Compound 119]           2.71
 4  CN(C(=O)c1cn2c(-c3ccc(-c4nnco4)cc3)cnc2cn1)c1ccc(C#N)cc1 [Compound 240]           2.05
 5  CC(=O)Nc1ccc(-c2cnc3cnc(C(=O)N(C)c4ccc(C)cn4)cn23)cc1 [Compound 361]           3.71
 6  CN(C(=O)c1cn2c(-c3ccc(OC(F)F)cc3)cnc2cn1)c1ccc(Cl)cc1 [Compound 102]           1.72
 7  CN(C(=O)c1cn2c(-c3ccc(C(F)(F)F)cc3)cnc2cn1)c1cccc(Br)c1 [Compound 183]           3.38
 8  CN(C(=O)c1cn2c(-c3ccc(C(F)(F)F)cc3)cnc2cn1)c1ccc(F)c(Cl)c1 [Compound 32]           2.13
 9  CN(C(=O)c1cn2c(-c3ccc4c(c3)CC(=O)N4)cnc2cn1)c1ccc(C#N)cc1 [Compound 204]           3.81
10  CN(C(=O)c1ccc(N2CCOCC2)cc1)c1cn2c(-c3ccc(C(F)(F)F)cc3)cnc2cn1 [Compound 24]           3.05

----------
Listed here: items and their measured log10(EC50).
- Test system: P. falciparum (NF54 or 3D7 strain)
- assayMethodText: Assay for P. falciparum proliferation in infected human blood cells (SYBR Green)
- Type: cell-based, Plasmodium falciparum
- conditionDescription: Plasmodium falciparum, Erythrocyte, 72 h, NF54 or 3D7 infected human erythrocytes, 72 hours; read-out: EC50 (nM), inhibitory efficacy in delaying P. falciparum proliferation in infected human blood cells
readoutKind: log10(EC50) (log10 of the value in nM)

> print(dat)
                                   compound                         assaytarget  valuemeasured
1  Cc1ccc(-c2cnc3cnc(C(=O)N(C)c4ccc(C#N)cc4)cn23)cc1 [Compound 113]  P. falciparum (NF54 or 3D7 strain)           1.91
2  COc1ncc(N(C)C(=O)c2cn3c(-c4ccc(C(F)(F)F)cc4)cnc3cn2)cn1 [Compound 399]  P. falciparum (NF54 or 3D7 strain)           3.84
3  COc1ccc(-c2cnc3cnc(C(=O)N(C)c4ccc(C#N)cc4)cn23)cc1Cl [Compound 42]  P. falciparum (NF54 or 3D7 strain)           2.52
4  CN(C(=O)N1CCC(F)CC1)c1cn2c(-c3ccc(C(F)(F)F)cc3)cnc2cn1 [Compound 322]  P. falciparum (NF54 or 3D7 strain)           3.43
5  CN(C(=O)c1cn2c(-c3ccc(C(F)(F)F)cc3)cnc2cn1)c1ccc(C(C)(C)C)nc1 [Compound 384]  P. falciparum (NF54 or 3D7 strain)           3.82

Values were extracted from patent US20150291598A1.
